Target: full length human recombinant glucocorticoid receptor (Homo sapiens)
Construct: It contains some partially purified full length human recombinant glucocorticoid receptor
Experiment: Glucocorticoid Receptor Binding Assay (Glucocorticoid Receptor Competitor Assay far red kit, fluorescence polarization)
Details: competition with fluorescent GR ligand Fluormone GS Far Red, 3 hours at 22° C., pH 7.4; Ki calculated from IC50 by Cheng-Prusoff
pKi: −log10 of the molar value.
Please enter 1 where pKi is greater than or equal to 9, and 0 where it is lower.

molecule: C[C@H](c1ccc(Oc2cc(C(=O)O)c(C(F)(F)F)cn2)cc1Cl)[C@@](O)(c1ccc2c(c1)n(C)c(=O)n2C)C(F)(F)F (stereo in doubt) [Example 110]
group.label: 0

molecule: C[C@@H](c1ccc(-c2ccc(C(=O)O)c(F)c2)cc1Cl)[C@](O)(c1ccc2c(c1)N(C)S(=O)(=O)N2C)C(F)(F)F (relative stereo) [Example 163]
group.label: 0

molecule: COC(=O)CC1CCN(C(=O)c2ccc(Cl)c([C@H](C)[C@](O)(c3ccc4c(c3)N(C)C(=O)CO4)C(F)(F)F)c2)CC1 (relative stereo) [Example 19]
group.label: 0

molecule: C[C@H](c1ccc(-c2ccc(OCC(=O)O)cc2)cc1Cl)[C@@](O)(c1ccc2oc(=O)n(C)c2c1)C(F)(F)F (stereo in doubt) [Example 130]
group.label: 1

---

Biological target: full length human recombinant glucocorticoid receptor (Homo sapiens, UniProt P04150)
Construct: It contains some partially purified full length human recombinant glucocorticoid receptor
Sequence (P04150 whole entry): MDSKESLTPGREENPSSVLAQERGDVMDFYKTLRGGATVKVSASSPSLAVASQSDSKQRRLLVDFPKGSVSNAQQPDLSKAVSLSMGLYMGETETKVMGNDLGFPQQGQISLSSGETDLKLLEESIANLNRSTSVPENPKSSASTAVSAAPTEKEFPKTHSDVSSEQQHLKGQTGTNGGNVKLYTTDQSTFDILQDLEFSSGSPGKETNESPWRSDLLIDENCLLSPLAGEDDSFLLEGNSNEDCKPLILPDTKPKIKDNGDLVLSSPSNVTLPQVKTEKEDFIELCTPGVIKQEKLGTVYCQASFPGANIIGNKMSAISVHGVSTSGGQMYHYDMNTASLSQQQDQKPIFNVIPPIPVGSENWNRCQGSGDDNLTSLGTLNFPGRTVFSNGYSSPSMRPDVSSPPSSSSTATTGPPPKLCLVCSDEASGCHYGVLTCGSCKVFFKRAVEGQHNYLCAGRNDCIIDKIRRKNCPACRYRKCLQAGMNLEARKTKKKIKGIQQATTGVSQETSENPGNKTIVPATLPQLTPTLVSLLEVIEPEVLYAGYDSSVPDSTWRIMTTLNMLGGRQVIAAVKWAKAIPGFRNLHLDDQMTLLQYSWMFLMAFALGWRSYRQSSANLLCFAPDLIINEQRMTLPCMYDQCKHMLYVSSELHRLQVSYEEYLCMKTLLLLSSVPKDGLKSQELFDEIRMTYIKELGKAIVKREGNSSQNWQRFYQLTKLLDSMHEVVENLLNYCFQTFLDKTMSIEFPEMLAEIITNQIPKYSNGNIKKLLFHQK
Assay: Glucocorticoid Receptor Binding Assay (Glucocorticoid Receptor Competitor Assay far red kit, fluorescence polarization)
Conditions: competition with fluorescent GR ligand Fluormone GS Far Red, 3 hours at 22° C., pH 7.4; Ki calculated from IC50 by Cheng-Prusoff
Labelling: Ki reported below 4 nM becomes 1.0; at or above becomes 0.0.

compound: CC(c1ccc(Oc2ccc(C(=O)O)cc2Cl)cc1Cl)C(O)(c1ccc2c(c1)n(C)c(=O)n2C)C(F)(F)F (stereo not drawn) [Example 87]
group.label: 1.0
//
compound: C[C@@H](c1ccc(-c2ccc(C(=O)O)c(F)c2)cc1Cl)[C@](O)(c1ccc(=O)n2ccccc12)C(F)(F)F (stereo in doubt) [Example 50]
group.label: 0.0
//
compound: C[C@H](c1ccc(O)cc1Cl)[C@@](O)(c1ccc2oc(=O)n(C)c2c1)C(F)(F)F (relative stereo) [Example 172]
group.label: 1.0
//
compound: COC(=O)c1cnc(Oc2ccc([C@@H](C)[C@@](O)(c3ccc4c(c3)N(C)C(=O)CO4)C(F)(F)F)c(Cl)c2)cc1Cl (racemic) [Example 210]
group.label: 1.0
//
compound: COC(=O)c1ccc(-c2ccc([C@@H](C)[C@@](O)(c3ccc4oc(=O)n(C)c4c3)C(F)(F)F)c(Cl)c2)cc1OC (relative stereo) [Example 131]
group.label: 1.0
//
compound: CC(c1ccc(-c2ccc(OCC(=O)O)cc2)cc1Cl)C(O)(c1ccc2c(c1)n(C)c(=O)n2C)C(F)(F)F (stereo not drawn) [Example 75]
group.label: 1.0
//
compound: C[C@H](c1ccc(Oc2ncc(C(=O)O)cc2Cl)cc1Cl)[C@@](O)(c1ccc2c(c1)N(C)C(=O)CO2)C(F)(F)F [Example 223]
group.label: 0.0
//
compound: C[C@H](c1ccc(-c2ccc(F)c(C(=O)O)c2)cc1Cl)[C@@](O)(c1cccc(C#N)c1)C(F)(F)F (stereo in doubt) [Example 154]
group.label: 0.0
//
compound: COC(=O)c1ccc(-c2ccc([C@H](C)[C@](O)(c3ccc4c(c3)N(C)C(=O)CO4)C(F)(F)F)c(Cl)c2)cc1F (racemic) [Example 25]
group.label: 1.0
//
compound: C[C@@H](c1cc(Oc2ccc(F)c(C(=O)O)c2)ccc1Cl)[C@](O)(c1ccc2c(c1)N(C)C(=O)CO2)C(F)(F)F (relative stereo) [Example 11]
group.label: 1.0
//
compound: C[C@@H](c1cc(-c2ccc(C(=O)O)cc2)ccc1Cl)[C@](O)(c1ccc2c(c1)N(C)C(=O)CO2)C(F)(F)F (relative stereo) [Example 17]
group.label: 0.0
//
compound: C[C@H](c1ccc(Oc2ccc(C(=O)O)c(Cl)n2)cc1Cl)[C@@](O)(c1ccc2c(c1)OCC(=O)N2C)C(F)(F)F (relative stereo) [Example 158]
group.label: 1.0
